Test system: HCT-15
Assay: Growth inhibition of human HCT15 cells assessed as cell growth at 10 uM after 48 hrs by sulforhodamine B assay
Assay type: functional
Settings: HCT-15, 48 h, read-out: Activity

chemical.string: COc1cc(-c2nn(-c3cccc(NC(=O)Nc4ccc(Cl)c(C(F)(F)F)c4)c3)cc2-c2ccncc2)ccc1Cl
unit.of.measure: %
growth at 10 µM: 9.91
--
chemical.string: COc1cc(-c2nn(-c3cccc(NC(=O)c4cccc(C(F)(F)F)c4)c3)cc2-c2ccncc2)ccc1Cl
unit.of.measure: %
growth at 10 µM: 12.8
--
chemical.string: COc1cc(-c2nn(-c3cccc(NC(=O)Nc4cc(C(F)(F)F)cc(C(F)(F)F)c4)c3)cc2-c2ccncc2)ccc1Cl
unit.of.measure: %
growth at 10 µM: 2.59
--
chemical.string: O=C(Nc1cccc(-n2cc(-c3ccncc3)c(-c3ccc(Cl)c(O)c3)n2)c1)Nc1cc(C(F)(F)F)cc(C(F)(F)F)c1
unit.of.measure: %
growth at 10 µM: -7.23
--
chemical.string: Cc1cc(C(=O)Nc2cccc(-n3cc(-c4ccncc4)c(-c4ccc(Cl)c(O)c4)n3)c2)ccc1Br
unit.of.measure: %
growth at 10 µM: 97.4
--
chemical.string: O=C(Nc1cccc(-n2cc(-c3ccncc3)c(-c3ccc(Cl)c(O)c3)n2)c1)c1ccccc1
unit.of.measure: %
growth at 10 µM: 58.2

----------
As shown below, each of these molecules has a reported growth at 10 µM value.
Test system: A549
Test: Growth inhibition of human A549/ATCC cells assessed as cell growth at 10 uM after 48 hrs by sulforhodamine B assay
Assay type: functional
Details: A549, 48 h, read-out: Activity

chemical.string: COc1cc(-c2nn(-c3cccc(NC(=O)c4ccc(N5CCOCC5)c(C(F)(F)F)c4)c3)cc2-c2ccncc2)ccc1Cl
growth at 10 µM (%): 3.58

chemical.string: O=C(Nc1cccc(-n2cc(-c3ccncc3)c(-c3ccc(Cl)c(O)c3)n2)c1)Nc1cccc(C(F)(F)F)c1
growth at 10 µM (%): 5.74

chemical.string: O=C(Nc1cccc(-n2cc(-c3ccncc3)c(-c3ccc(Cl)c(O)c3)n2)c1)c1ccc(Cl)c(C(F)(F)F)c1
growth at 10 µM (%): 88.8

----------
Catalogue of compounds with associated growth at 0.003 µM
Test system: DU-145
Assay: Growth inhibition of human DU145 cells assessed as cell growth at 3X10'-9 M after 48 hrs by sulforhodamine B assay
Format: functional
Settings: DU-145, 48 h, read-out: Activity

chemical.string: COc1cc(-c2nn(-c3cccc(NC(=O)c4ccc(Cl)c(C(F)(F)F)c4)c3)cc2-c2ccncc2)ccc1Cl
target.or.test.system: DU-145
growth at 0.003 µM: 100%

chemical.string: O=C(Nc1cccc(-n2cc(-c3ccncc3)c(-c3ccc(Cl)c(O)c3)n2)c1)Nc1ccc(Cl)c(C(F)(F)F)c1
target.or.test.system: DU-145
growth at 0.003 µM: 101%

chemical.string: O=C(Nc1cccc(-n2cc(-c3ccncc3)c(-c3ccc(Cl)c(O)c3)n2)c1)Nc1ccc(Cl)c(Cl)c1
target.or.test.system: DU-145
growth at 0.003 µM: 104%

chemical.string: COc1cc(-c2nn(-c3cccc(NC(=O)Nc4ccc(Cl)c(C(F)(F)F)c4)c3)cc2-c2ccncc2)ccc1Cl
target.or.test.system: DU-145
growth at 0.003 µM: 102%
